The following compounds are listed with their measured Percent Effect values.
test system: Wolbachia pipientis; assay: Anti-Wolbachia Cell-Based Screen; format: functional; set-up: scale not given: in the data most compounds retested in dose-response had high values; settings: 5 µM
In all, about 48,000 compounds went through this assay and about 13,000 (27%) showed an effect of 50% or more. This is one part of the list.
Numeric only. Scale: %

Examples with their reported Percent Effect follow.
O=C(NC1CC(=O)N(C2CC2)C1)c1ccc(Cl)s1 (stereo not drawn)	-7.498
Fc1ccc2[nH]c(C3CCCN3CCCn3cccn3)nc2c1 (stereo not drawn)	-31.47
CCN1CCCCC1C(=O)N1CCN(C(=O)OC)CC1 (stereo not drawn)	100.7
O=C(O)C(F)(F)F.O=C(O)C(F)(F)F.c1cncc(COCc2nnc3n2CCN(Cc2ccsc2)C3)c1	-0.7002
N#Cc1cccnc1NCCNC(=O)N1CCCSCC1	-6.239

Which value of Percent Effect has been reported for O=C1CSCN1Cc1nc(-c2ccc(N3CCCCC3)cc2)no1 in the records? -5.803

Ok, now COc1ccc(-c2nnc([C@H]3CCN(CC4CC4)C3)o2)cc1 1.558

Queued: Nc1ncccc1C(=O)NCc1cccc(Cl)c1 135.3

Can you check O=C(O)C(F)(F)F.c1coc(CN2CCCn3c(nnc3Cn3cccc3)C2)c1 next? 110.6

Field entry: CC(=O)N1CCN(CCNS(=O)(=O)c2cc(F)cc(F)c2)CC1 102.1

Same thing, different compound: COC(=O)N1CCCCC1C(=O)N1CCC(c2ccncc2)CC1 (stereo not drawn) -8.744

Now this one: COCCOC1CCN(C(=O)NCc2cc(C)oc2C)CC1 6.618

Would you kindly repeat that for COC(=O)NCc1ccc(NC(=O)CC2=CCCCC2)cc1 ? -4.854

Same thing, different compound: c1cnn(CC2CN(CCc3ccncc3)CCO2)c1 (stereo not drawn) 0.6004

Consider next the compound CC(C)N1CC(NC(=O)c2ccc(Cl)s2)CC1=O (stereo not drawn) in the same way. 98.39

Record: Cc1cc(CCC2CN(CC3(O)CCCCC3)CCO2)ncn1 (stereo not drawn) 116.4

Query c1cnn(CCN2CCOC(Cn3cncn3)C2)c1 (stereo not drawn) next -9.191

Next compound up: Cc1noc(CN2CCC(c3ccnn3CCO)CC2)n1 -5.622

====

test system: Wolbachia pipientis; experiment: Anti-Wolbachia Cell-Based Screen; format: functional; design: scale not given: in the data most compounds retested in dose-response had high values; details: 5 µM
The campaign covered roughly 48,000 compounds. About 13,000 (27%) showed an effect of 50% or more. Some of the results follow.
Each record here notes measured Percent Effect.
The response must be a number in % with no trailing unit.

Some entries whose results are on file:
CC(C)n1cc(C(=O)NCCN(C)C)c2n[nH]c(=O)c-2c1	115.3
CCS(=O)(=O)N1CCc2ccc(NC(=O)NC3CCCCC3)cc21	108.5
CC[C@H](C)[C@H](N)C(=O)Nc1nc(-c2cnc(N(C)C)nc2)cs1	89.2
CN(Cc1ccccc1)C1(C(=O)NC(CO)CO)Cc2ccccc2C1	2.959
COCCNC(=O)c1ccc2ccc(N(C)CC3CC3)n2c1	103.1
CCS(=O)(=O)N1CCCc2ccc(NC(=O)Cc3ccc(F)cc3)cc21	-6.577

# Percent Effect lookup, item CN(C)CCNC(=O)c1cc2n(n1)CCN(C(=O)c1ccc[nH]1)C2 -27.47

And for O=C(Nc1c(F)cccc1Oc1ccccc1)C1CCS(=O)(=O)C1 (stereo not drawn) ? 2.058

Thanks! And COc1ccc(OC)c(S(=O)(=O)NC(=O)C(C)OC)c1 (stereo not drawn) ? 1.842

Cc1nc(-c2cccc(C(=O)N(C)CC(C)O)c2)cs1 (stereo not drawn) ? -6.133

Follow-up item: CC[C@H](C)[C@H](N)C(=O)Nc1nc(-c2cnc(N(C)CCO)nc2)cs1 103.7

Similarly, COCCN(Cc1ccc(C)cc1)Cc1nccn1C ? 5.615

Another compound to check: Cn1ccc(C(=O)N(CC(F)(F)F)c2cccc(Cl)c2)cc1=O -11.93

Now give it for CCN1Cc2nccn2CC(COCc2csc(C)n2)C1.O=C(O)C(F)(F)F.O=C(O)C(F)(F)F (stereo not drawn) too. 99.32

Another: CCC(Nc1nnnn1-c1ccccc1)C(=O)Nc1nc(C)cs1 (stereo not drawn) 23.33

Same for NS(=O)(=O)N1CCc2ccc(NC(=O)Cc3ccc(F)cc3)cc21 -5.162

Next entry: O=C(NCCN1CCCCC1=O)C1CCC(=O)N(C2CCCC2)C1 (stereo not drawn) -13.2

And for C1CC(CN2C[C@H]3CC[C@@H]2CN(Cc2noc(C4CCCC4)n2)C3)C1 ? -8.86

====

tested on: Wolbachia pipientis; assay: Anti-Wolbachia Cell-Based Screen; format: functional; set-up: scale not given: in the data most compounds retested in dose-response had high values; conditions: 5 µM
Hit rate of the full screen: of about 48,000 compounds, about 13,000 (27%) showed an effect of 50% or more. This is one part of the list.
reported-metric: Percent Effect (%)
The answer is to be given in %; state only the numeric part.

Reference set, count: 10
Nc1no[n+]([O-])c1C(=O)NCc1ccccn1	131.2
COCCCC1(C(=O)O)CCCN(C(=O)c2ccc(C(C)C)[nH]c2=O)C1 (stereo not drawn)	4.25
COC(=O)c1cccc2nc([C@H]3CCN(CC(C)C)C3)oc12	-3.142
CC(C)CN1CCC(NC(=O)c2ccc(F)cc2I)CC1	2.48
CCn1cc(Br)c(C(=O)NCc2cccnc2)n1	4.447
Cc1ccc2nc(C3CCCN(CC(C)C)C3)nc(O)c2c1 (stereo not drawn)	109.3
Cc1ccc2ncn(CC(O)CN3CCC(C)CC3)c(=O)c2c1 (stereo not drawn)	8.084
Cc1occc1C(=O)N1CCC2(CC1)CN(Cc1nccs1)CCO2.O=C(O)C(F)(F)F	-1.97
CCN(CC(C)C#N)C(=O)CNc1ccc(F)c(C)c1 (stereo not drawn)	98.55
Cc1ccc2nc(CN3CCCC3c3cccnc3)cc(O)c2c1 (stereo not drawn)	7.141

Name the recorded Percent Effect for COc1ccc(COCC(O)CNC(=O)c2cc(C)cc(C)c2)cc1 (stereo not drawn) . 13.74

And what about the molecule c1ccc2sc(N3CCCN(c4ncnc5c4CCNC5)CC3)nc2c1 ? -7.795

Do the same for CCc1noc(C)c1C(=O)NCc1ccccn1 please -15.45

====

system: Wolbachia pipientis; assay: Anti-Wolbachia Cell-Based Screen; assay type: functional; design: scale not given: in the data most compounds retested in dose-response had high values; settings: 5 µM
About 13,000 (27%) of roughly 48,000 compounds showed an effect of 50% or more. The list shows a part of the results.
Property: Percent Effect; scope: individual compounds
Express it in %; write the number only.

Use these answered entries as a reference point.
CN(CC1(O)CCN(c2ccnc3ccncc23)CC1)C(=O)CCN	110.4
CCn1cnnc1CNC(=O)N1CCOC(c2ccc(F)cc2)C1 (centres undefined)	-19.34
Cc1ccc(N2CCCN(C(=O)CCC3CCCO3)CC2)nn1 (centres undefined)	87.48
CCc1nncn1CCNC(=O)N1CCN(Cc2ccccc2)CC1	122

So what Percent Effect did COCC(=O)NC[C@]1(O)CN(Cc2ccc3c(c2)OCCO3)C[C@H]1O get with Wolbachia pipientis? 114.3

// next record Cc1ccc(NC2CCCN(C3Cc4ccccc4C3)C2)nn1 (centres undefined) -17.09

Same question for CN(Cc1ccncc1)CC(c1cccs1)N1CCOCC1 (centres undefined) please. -0.8027

Also check COCC(=O)NC[C@]12COC[C@H]1CN(Cc1ccc3c(c1)OCO3)C2.O=C(O)C(F)(F)F 110

# repeat for CCOC1COC2(CCN(c3cccc(C)n3)CC2)C1.O=C(O)C(F)(F)F (centres undefined) 89.3

And the next one, CCn1cnnc1CNC(=O)N1CCC(Cc2cccnc2)CC1 ? 3.678

Now the same for Cc1cc(N2CCC(CO)(CC3CCCCO3)CC2)c2ccccc2n1 (centres undefined) -1.662

Again, but for Cc1ccc(N2CCCN(C(=O)c3cc(Cl)c[nH]3)CC2)nn1 -5.212

====

test system: Wolbachia pipientis; assay: Anti-Wolbachia Cell-Based Screen; assay type: functional; parameters: scale not given: in the data most compounds retested in dose-response had high values; conditions: 5 µM
Hit rate of the full screen: of about 48,000 compounds, about 13,000 (27%) showed an effect of 50% or more. The list shows a part of the results.
Entries annotated with measured Percent Effect

O=C(CCN1C(=O)CCC1=O)Nc1ccc(Oc2ccc(Cl)cc2)nc1	-10.42%

Would you mind telling me what Percent Effect value was observed for COCCC(=O)N1CCn2c(COCC3CC3)cnc2C1C (stereo not given) ? -18.59%

Now consider CCc1nnsc1C(=O)NCCn1nc2ccccn2c1=O and answer again. 6.254%

Let us now turn to COCc1cccc(NC(C)C(=O)N(C)Cc2ccccc2)c1 (stereo not given) -9.622%

Note, next up: O=C(CO)N1CCc2onc(Cn3cccn3)c2C1 6.984%
